tested on: 958667-338-R-J2-PDC tumor spheroids viability; test: Anticancer human tumor 958667-338-R-J2-PDC patient-derived colon adenocarcinoma cell line growth inhibition [PI3K]; conditions: curve of first compound; second compound 0.316 µM; spheroids with HUVEC and MSC;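 note: spheroids exposed to compounds for seven days before readout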
endpoint name: IC50

Sample answers from the record:
INSERT INTO assay_data (molecule, measurement_target, obs_value) VALUES
  ('CNC(=O)c1ccc(N2C(=S)N(c3ccc(C#N)c(C(F)(F)F)c3)C(=O)C2(C)C)cc1F + CC(Nc1ccc2c(c1)OCCn1cc(N3C(=O)OCC3C(F)F)nc1-2)C(N)=O', '958667-338-R-J2-PDC tumor spheroids viability', '> 10000 nM'),
  ('CCN1CCN(Cc2ccc(Nc3ncc(F)c(-c4cc(F)c5nc(C)n(C(C)C)c5c4)n3)nc2)CC1 + COc1c(OCCCN2CCOCC2)ccc2c3n(c(=NC(=O)c4cnc(N)nc4)nc12)CCN3', '958667-338-R-J2-PDC tumor spheroids viability', '< 3.16 nM'),
  ('C#Cc1c(F)ccc2cc(O)cc(-c3ncc4c(N5CC6CCC(C5)N6)nc(OCC56CCCN5CC(F)C6)nc4c3F)c12 (stereo unspecified) + Cc1nc(NC(=O)N2CCCC2C(N)=O)sc1-c1ccnc(C(C)(C)C(F)(F)F)c1', '958667-338-R-J2-PDC tumor spheroids viability', '> 10000 nM'),
  ('CC(Cn1ccc(-c2ccc(C#N)c(Cl)c2)n1)NC(=O)c1cc(C(C)O)[nH]n1 (stereo unspecified) + CC(Nc1ncnc2nc[nH]c12)c1cc2cccc(Cl)c2c(=O)n1-c1ccccc1', '958667-338-R-J2-PDC tumor spheroids viability', '> 10000 nM');

Consider the additional molecule presented here.
-- ask Dear colleague, I am looking for the recorded IC50 of the following molecule: CC(Cn1ccc(-c2ccc(C#N)c(Cl)c2)n1)NC(=O)c1cc(C(C)O)[nH]n1 (stereo unspecified) + COc1c(OCCCN2CCOCC2)ccc2c3n(c(=NC(=O)c4cnc(N)nc4)nc12)CCN3
-- reply < 31.6 nM
